Consider the following compounds; for each one, report its Mito-Safety Index (highest safe dose/EC50).
test: Mitotoxicity / Mitotox safety margin (therapeutic window); type: cell-based; conditions: highest safe dose/EC50

Which Mito-Safety Index (highest safe dose/EC50) value belongs to C[C@@H]1CN([C@H]2COc3cc(F)ccc3[C@@H]2Nc2ncnc3[nH]c(C(F)(F)F)cc23)C[C@H](C)O1 (single isomer, unassigned) [EP-0040773] ? 77.04

Look up Mito-Safety Index (highest safe dose/EC50): c1ccc2c(c1)OC[C@H](N1CCOCC1)[C@H]2Nc1ncnc2[nH]c(C3CC3)cc12 (single isomer, unassigned) [EP-0040180] 97.54

Suppose we examine the compound c1ccc2c(c1)OC[C@@H](N1C[C@H]3COC[C@H]3C1)[C@@H]2Nc1ncnc2[nH]c(C3CC3)cc12 (single isomer, unassigned) [EP-0040392] ; what Mito-Safety Index (highest safe dose/EC50) value has been reported? 153.83

Requested read-out: Mito-Safety Index (highest safe dose/EC50). Entry: FC(F)(F)c1cc2c(N[C@H]3c4ccccc4OC[C@H]3C3CCCOC3)ncnc2[nH]1 (mixture of isomers) [EP-0041004] 25.46

I have this compound here, C[C@@H]1CN([C@H]2COc3ccccc3[C@@H]2Nc2ncnc3[nH]c(C(F)(F)F)cc23)C[C@H](C)O1 (single isomer, unassigned) [EP-0040749] , and I need its recorded Mito-Safety Index (highest safe dose/EC50). 48.24

---

Tested on: HeLa MKYP cells
Experiment: Cell death measured by DAPI staining, with 1 μM FCCP/oligomycin or no toxin (no FO)
Assay type: cell-based
Details: 25 μM compound, 1 uM FO
Experimental: EP-0035985, EP-0037821, EP-0038098, and EP-0038099 in the presence of 1 μM FCCP/oligomycin or with no toxin (no FO) for 6 hrs. H2O2 treatment was performed as a control for cell death as measured by DAPI staining. EP-0035985, EP-0038461, EP-0038463, and EP-0038503 in the presence of 1 μM FCCP/oligomycin or with no toxin (no FO) for 6.5 hrs. H2O2 treatment was performed as a control for cell death as measured by DAPI staining. […]
Field: Max cell death at 25 μM compound, 1 uM FO (%). Provide a value for each of the compounds that follow.
// note: answer is a bare numeric in %

Requested read-out: Max cell death at 25 μM compound, 1 uM FO (%). Entry: FC(F)(F)c1cc2c(N[C@@H]3c4ccccc4CC[C@H]3N3C[C@H]4COC[C@H]4C3)ncnc2[nH]1 (single isomer, unassigned) [EP-0038583] 39.5

Reported Max cell death at 25 μM compound, 1 uM FO (%), compound FC(F)(F)c1cc2c(N[C@H]3c4ccccc4CC[C@@H]3N3C[C@H]4COC[C@H]4C3)ncnc2[nH]1 (single isomer, unassigned) [EP-0038582] : ____ 5.87

Please report the recorded Max cell death at 25 μM compound, 1 uM FO (%) for Fc1ccc2c(c1)CC[C@H](N1CCOCC1)[C@H]2Nc1ncnc2[nH]c(C(F)(F)F)cc12 (single isomer, unassigned) [EP-0038503] . 8.15

# Max cell death at 25 μM compound, 1 uM FO (%) lookup, item FC(F)(F)c1cc2c(N[C@H]3c4ccccc4CC[C@@H]3N3CCCCC3)ncnc2[nH]1 (single isomer, unassigned) [EP-0038392] 23.2

Which Max cell death at 25 μM compound, 1 uM FO (%) reading was recorded for the compound c1ccc2c(c1)OC[C@H](N1CCOCC1)[C@H]2Nc1ncnc2[nH]c(C3CC3)cc12 [EP-0040080] ? 16

Look at this compound and give its reported Max cell death at 25 μM compound, 1 uM FO (%). FC(F)(F)c1cc2c(N[C@@H]3c4ccccc4CC[C@@H]3N3CCOCC3)ncnc2[nH]1 [EP-0037820] 58

What measured Max cell death at 25 μM compound, 1 uM FO (%) goes with c1ccc2c(c1)CC[C@H](N1C[C@H]3COC[C@H]3C1)[C@H]2Nc1ncnc2[nH]c(C3CC3)cc12 [EP-0039713] ? 19.2

I would be grateful if you could share the reported Max cell death at 25 μM compound, 1 uM FO (%) for Fc1ccc2c(c1)CC[C@H](N1CCOCC1)[C@H]2Nc1ncnc2[nH]c(C3CC3)cc12 (single isomer, unassigned) [EP-0039746] . 15.3

Data request, read-out Max cell death at 25 μM compound, 1 uM FO (%), for FC(F)(F)c1cc2c(N[C@H]3c4ccccc4CC[C@@H]3N3CC4(COC4)C3)ncnc2[nH]1 [EP-0038249] 37.3

Any idea what its Max cell death at 25 μM compound, 1 uM FO (%) is? The compound is Fc1ccc2c(c1)CC[C@@H](N1CCOCC1)[C@@H]2Nc1ncnc2[nH]c(C(F)(F)F)cc12 (single isomer, unassigned) [EP-0038504] 4.59

If you can, please state the reported Max cell death at 25 μM compound, 1 uM FO (%) value of Fc1ccc2c(c1)CC[C@@H](N1CCOCC1)[C@@H]2Nc1ncnc2[nH]c(C3CC3)cc12 [EP-0039747] . 24.4

Entry FC(F)(F)c1cc2c(N[C@H]3c4ccccc4CC[C@@H]3N3CCOCC3)ncnc2[nH]1 (single isomer, unassigned) [EP-0038098] has what Max cell death at 25 μM compound, 1 uM FO (%)? 24

Entry COC1CCN([C@H]2CCc3ccccc3[C@@H]2Nc2ncnc3[nH]c(C(F)(F)F)cc23)CC1 [EP-0038282] : reported Max cell death at 25 μM compound, 1 uM FO (%) = ? 97.5

Form field: reported Max cell death at 25 μM compound, 1 uM FO (%) of FC(F)(F)c1cc2c(N[C@H]3c4ccccc4OC[C@@H]3N3CCOCC3)ncnc2[nH]1 [EP-0040078] 18

Report Max cell death at 25 μM compound, 1 uM FO (%) for FC(F)(F)c1cc2c(N[C@@H]3c4ccccc4CC[C@H]3N3CCOCC3)ncnc2[nH]1 (racemic) [EP-0037821] please. 71.62

Any idea what Max cell death at 25 μM compound, 1 uM FO (%) was measured for O=C1COCCN1[C@H]1CCc2ccccc2[C@@H]1Nc1ncnc2[nH]c(C(F)(F)F)cc12 (single isomer, unassigned) [EP-0038378] ? 15.4

Query (compound): Fc1ccc2c(c1)CC[C@H](N1CCOCC1)[C@H]2Nc1ncnc2[nH]c(C3CC3)cc12 (single isomer, unassigned) [EP-0038521] ; field requested: Max cell death at 25 μM compound, 1 uM FO (%) 6.77

What value of Max cell death at 25 μM compound, 1 uM FO (%) has been recorded for this entry: CN(c1ncnc2[nH]c(C(F)(F)F)cc12)C1c2ccccc2CCC1N1C[C@H]2COC[C@H]2C1 (some centres unmarked) [EP-0039742] 13.8

Recorded Max cell death at 25 μM compound, 1 uM FO (%) for c1ccc2c(c1)CC[C@H](N1CCOCC1)[C@H]2Nc1ncnc2[nH]c(C3CC3)cc12 (racemic) [EP-0039677] , please? 10.2

Returns the measured Max cell death at 25 μM compound, 1 uM FO (%) for the input compound. Input: c1ccc2c(c1)CC[C@H](N1CCOCC1)[C@H]2Nc1ncnc2[nH]cnc12 [EP-0039678] 2.27

What value of Max cell death at 25 μM compound, 1 uM FO (%) has been reported for the following compound? FC(F)(F)c1cc2c(N[C@@H]3c4ccccc4CC[C@H]3N3CCOCC3)ncnc2[nH]1 (single isomer, unassigned) [EP-0038099] 13.7

Which Max cell death at 25 μM compound, 1 uM FO (%) value belongs to FC1(F)CCN([C@H]2CCc3ccccc3[C@@H]2Nc2ncnc3[nH]c(C(F)(F)F)cc23)CC1 (single isomer, unassigned) [EP-0038393] ? 17.6

If you can, please state the reported Max cell death at 25 μM compound, 1 uM FO (%) value of FC(F)(F)c1cc2c(N[C@H]3c4ccccc4CC[C@@H]3N3C4CCC3COC4)ncnc2[nH]1 [EP-0038283] . 98

---

assay: Mitotoxicity / Mitotox safety margin (therapeutic window); assay type: cell-based; settings: mitotox or cytotox
Can you tell me Highest safe dose (μM) (mitotox or cytotox) for the items I'm about to list?
Field format: number, assumed µM, no unit text.

Quick check: Highest safe dose (μM) (mitotox or cytotox) of C[C@@H]1CN([C@H]2COc3cc(F)ccc3[C@@H]2Nc2ncnc3[nH]c(C4CC4)cc23)C[C@H](C)O1 [EP-0040948] ? 25.0

Given FC(F)(F)c1cc2c(N[C@@H]3c4ccccc4CC[C@H]3N3C[C@H]4COC[C@H]4C3)ncnc2[nH]1 (single isomer, unassigned) [EP-0038583] , state its recorded Highest safe dose (μM) (mitotox or cytotox). 9.1

So what does the record say about Highest safe dose (μM) (mitotox or cytotox) for CN(c1ncnc2[nH]c(C(F)(F)F)cc12)C1c2ccccc2CCC1N1C[C@H]2COC[C@H]2C1 (some centres unmarked) [EP-0039742] ? 25.0

Which Highest safe dose (μM) (mitotox or cytotox) reading was recorded for the molecule c1ccc2c(c1)CC[C@H](C1CCOCC1)[C@H]2Nc1ncnc2[nH]c(C3CC3)cc12 [EP-0040726] ? 2.1

Quick check: Highest safe dose (μM) (mitotox or cytotox) of Fc1ccc2c(c1)CC[C@H](N1C[C@H]3COC[C@H]3C1)[C@H]2Nc1ncnc2[nH]c(C3CC3)cc12 [EP-0040601] ? 10.3

Bench note: what Highest safe dose (μM) (mitotox or cytotox) did C[C@@H]1CN([C@H]2CCc3ccccc3[C@@H]2Nc2ncnc3[nH]c(C4CC4)cc23)C[C@H](C)O1 (single isomer, unassigned) [EP-0040498] show? 0.7

Name the reported Highest safe dose (μM) (mitotox or cytotox) value associated with the molecule Fc1ccc2c(c1)OC[C@H](N1C[C@@H]3COC[C@H]3C1)[C@H]2Nc1ncnc2[nH]c(C3CC3)cc12 (single isomer, unassigned) [EP-0040644] 25.0

Look up Highest safe dose (μM) (mitotox or cytotox): c1ccc2c(c1)OC[C@@H](C1CCOCC1)[C@@H]2Nc1ncnc2[nH]c(C3CC3)cc12 [EP-0040729] 3.2

Source of measurements: patent US20240018146A1
